# target_of_assay: Androgen receptor (Homo sapiens) (UniProt P10275)
# Sequence (P10275 whole entry, looked up): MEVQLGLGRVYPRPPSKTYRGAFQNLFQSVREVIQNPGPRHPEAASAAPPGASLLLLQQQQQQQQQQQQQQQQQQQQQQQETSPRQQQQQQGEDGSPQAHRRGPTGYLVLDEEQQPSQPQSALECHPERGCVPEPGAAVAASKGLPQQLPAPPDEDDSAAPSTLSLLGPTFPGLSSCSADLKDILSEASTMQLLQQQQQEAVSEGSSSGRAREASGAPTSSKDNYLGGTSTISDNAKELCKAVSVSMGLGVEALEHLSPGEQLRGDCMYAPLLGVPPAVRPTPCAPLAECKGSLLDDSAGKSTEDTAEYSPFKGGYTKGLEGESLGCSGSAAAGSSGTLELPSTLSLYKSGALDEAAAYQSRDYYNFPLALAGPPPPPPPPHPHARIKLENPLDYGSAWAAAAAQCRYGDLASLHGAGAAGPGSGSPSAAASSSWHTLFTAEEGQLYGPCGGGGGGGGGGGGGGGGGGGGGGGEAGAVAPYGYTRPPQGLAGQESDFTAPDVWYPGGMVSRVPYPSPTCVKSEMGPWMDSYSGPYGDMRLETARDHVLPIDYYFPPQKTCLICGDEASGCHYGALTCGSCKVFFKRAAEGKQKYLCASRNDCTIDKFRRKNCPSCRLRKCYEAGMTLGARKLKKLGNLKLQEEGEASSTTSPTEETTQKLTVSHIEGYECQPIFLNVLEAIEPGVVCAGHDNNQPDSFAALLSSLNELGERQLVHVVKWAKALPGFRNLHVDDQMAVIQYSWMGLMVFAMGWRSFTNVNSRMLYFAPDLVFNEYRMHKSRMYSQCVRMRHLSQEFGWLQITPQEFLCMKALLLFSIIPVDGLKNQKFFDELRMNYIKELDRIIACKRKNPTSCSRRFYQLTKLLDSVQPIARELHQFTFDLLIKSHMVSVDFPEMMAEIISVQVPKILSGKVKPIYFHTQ
# assay_comment: qHTS assay to identify small molecule agonists of the androgen receptor (AR) signaling pathway in the presence of an antagonist (AID 1259381); further: nearly all actives have a fitted effect of over 15% in size
# condition_description: MDA-kb2 MMTV-luciferase, AR agonist + nilutamide, 16 h; series mostly up to 92.4 µM
Active and inactive are the calls of the source. The call rests on the fitted dose curve. Starred links: 1 amine or outer side, 2 acyl side, 3 side chain; linkers in the order of their positions; H or OH if unused. Positions of bridges follow the written chain, without caps; N, C: chain ends. Non-standard residues stand in square brackets, D forms with d. Residues, ends and D or L forms follow the SMILES beside them. Chains are numbered I, II in the order given. Actinocin(9to1) = Cc1c2oc3c(C)ccc(C(=O)[*:1])c3nc-2c(C(=O)[*:2])c(N)c1=O; NMeV = CN[C@H](C(=O)O)C(C)C; Sar = CNCC(=O)O
observed_property: outcome

>  <molecule>
CCCC(=O)c1ccccc1

>  <outcome>
inactive

$$$$
>  <molecule>
CC1=CC(=O)c2ccccc2C1=O

>  <outcome>
inactive

$$$$
>  <molecule>
OCC(CO)N[C@H]1C[C@](O)(CO)[C@@H](O)[C@H](O)[C@H]1O

>  <outcome>
inactive

$$$$
>  <molecule>
C#CC(C)(CC)OC(=O)c1ccccc1C(=O)O (stereo not given)

>  <outcome>
inactive

$$$$
>  <molecule>
COc1ccc(Cc2cnc(N)nc2N)cc1OC

>  <outcome>
inactive

$$$$
>  <molecule>
Nc1cc(Cl)c(-c2cc(Cl)c(N)cc2Cl)cc1Cl

>  <outcome>
inactive

$$$$
>  <molecule>
CCN(CC)C(=S)SSC(=S)N(CC)CC

>  <outcome>
inactive

$$$$
>  <molecule>
CCCCCCCCCCCCCC[P+](CCCC)(CCCC)CCCC

>  <outcome>
inactive

$$$$
>  <molecule>
Cc1c2oc3c(C)ccc(C(=O)N[C@@H]4C(=O)N[C@H](C(C)C)C(=O)N5CCC[C@H]5C(=O)N(C)CC(=O)N(C)[C@@H](C(C)C)C(=O)O[C@@H]4C)c3nc-2c(C(=O)N[C@@H]2C(=O)N[C@H](C(C)C)C(=O)N3CCC[C@H]3C(=O)N(C)CC(=O)N(C)[C@@H](C(C)C)C(=O)O[C@@H]2C)c(N)c1=O (I: T[dV]P[Sar][NMeV] / II: T[dV]P[Sar][NMeV]; ester I:1-I:C, II:1-II:C; linker I:N-II:N via Actinocin(9to1))

>  <outcome>
inactive

$$$$

Switching to the query record.
`COc1cc(C(=S)N2CCOCC2)ccc1O` yielded outcome of inactive
